Just for reference, the supplement of paper PMC9732359 is where these values come from.

# assay method text: protein stability index of a GFP-peptide fusion (yeast GPS) (PSI 1-4); higher = more stable; sorted into four equal gates, so the index is relative within each strain
# run parameters: doa10∆
Label 1 when protein stability index >= 3; otherwise -1.

[
  {
    "seq text": "SLEEIIAEGQKKFATVP [RPP2B]",
    "group": -1
  },
  {
    "seq text": "HRWGTKKLPRKTHRGLR [RPL3]",
    "group": 1
  },
  {
    "seq text": "YDSRGVGEMKLLKKKDD [YLR335W/NUP2]",
    "group": -1
  },
  {
    "seq text": "WLLHNGFSTGIGDTIAD [RPO21]",
    "group": 1
  },
  {
    "seq text": "DELITEGNEKLAAVPAA [RPP2A]",
    "group": -1
  },
  {
    "seq text": "YGEYPPTKLLVSEVAKI [PRE8]",
    "group": -1
  },
  {
    "seq text": "RKFALEKLYIFYKLNMP [SRP72]",
    "group": -1
  },
  {
    "seq text": "NNNNNNNNNSTRPQMPS [GRR1]",
    "group": -1
  }
]

* * *

Measured protein stability index of individual entries
# assay method text: protein stability index of a GFP-peptide fusion (yeast GPS) (PSI 1-4); higher = more stable; sorted into four equal gates, so the index is relative within each strain
# run parameters: doa10∆
measurement kind: protein stability index

[
  {
    "seq text": "PFETFDHASIRRGYQVY [CYT1]",
    "measurement kind": "protein stability index",
    "val": 2.68
  },
  {
    "seq text": "VKDELMFSPLVDSGSND [RPO21]",
    "measurement kind": "protein stability index",
    "val": 3.11
  },
  {
    "seq text": "VGKLFRVGVVSILEAGD [RPL30]",
    "measurement kind": "protein stability index",
    "val": 1.99
  },
  {
    "seq text": "MRRNSKILNIIKCSQSS [POP5]",
    "measurement kind": "protein stability index",
    "val": 1.92
  },
  {
    "seq text": "LRRASATVPSAPYRKQI [YAR002W/NUP60]",
    "measurement kind": "protein stability index",
    "val": 2.72
  },
  {
    "seq text": "QNPLNKSQNTALPSTHK [SIR4]",
    "measurement kind": "protein stability index",
    "val": 2.62
  },
  {
    "seq text": "ELDRAAMNDKDLTMGQV [RPO21]",
    "measurement kind": "protein stability index",
    "val": 3.29
  }
]

* * *

Entries and their measured protein stability index follow.
# assay method text: protein stability index of a GFP-peptide fusion (yeast GPS) (PSI 1-4); higher = more stable; sorted into four equal gates, so the index is relative within each strain
# run parameters: doa10∆

[
  {
    "seq text": "KSNGLAPEIPEDLYYLI [RPS13]",
    "protein stability index": 2.65
  },
  {
    "seq text": "MSLEPTQTVSGTPPMLH [DSN1]",
    "protein stability index": 2.78
  },
  {
    "seq text": "DDSRNPDCKIKIAHGTT [PRE2]",
    "protein stability index": 2.63
  },
  {
    "seq text": "LSAEYLVILKPDLNIDR [SIN4]",
    "protein stability index": 2.97
  },
  {
    "seq text": "TTYTYQQPNPLQDLISV [ROX3]",
    "protein stability index": 1.67
  },
  {
    "seq text": "VDVQAPTDDKTLKPTFS [YOR098C/NUP1]",
    "protein stability index": 3.05
  },
  {
    "seq text": "FRVQSQSNYGIYSSDAQ [NUT1]",
    "protein stability index": 2.03
  },
  {
    "seq text": "TSVIQDLSEKILNDIET [BRR2]",
    "protein stability index": 2.89
  },
  {
    "seq text": "SADYEILYEIRALYTPF [YDL116W/NUP84]",
    "protein stability index": 1.86
  },
  {
    "seq text": "PLRDNGLLDESPNRLRV [YML031W/NDC1]",
    "protein stability index": 3.2
  },
  {
    "seq text": "TSILELGQLYVTMGAKD [RPN6]",
    "protein stability index": 3.23
  },
  {
    "seq text": "SDIPKTTVQVAEEAIVN [PRE4]",
    "protein stability index": 2.92
  },
  {
    "seq text": "TLISENWWHSEFEIPVS [BRR2]",
    "protein stability index": 1.84
  },
  {
    "seq text": "NIKSSISNGNLATGPNL [YOR098C/NUP1]",
    "protein stability index": 2.77
  }
]

* * *

# assay method text: protein stability index of a GFP-peptide fusion (yeast GPS) (PSI 1-4); higher = more stable; sorted into four equal gates, so the index is relative within each strain
# run parameters: doa10∆
Attribute: protein stability index
measurement kind: protein stability index

[
  {
    "seq text": "DSFTMPNISHSNIDYQT [SNF2]",
    "measurement kind": "protein stability index",
    "val": 2.4
  },
  {
    "seq text": "YSPSNEISISFDVNNID [YDL116W/NUP84]",
    "measurement kind": "protein stability index",
    "val": 2.4
  },
  {
    "seq text": "YDLVDNKGAKAEDVALN [NAS6]",
    "measurement kind": "protein stability index",
    "val": 2.8
  },
  {
    "seq text": "YEAGASHGNPVVDFLKR [FAS1]",
    "measurement kind": "protein stability index",
    "val": 3.17
  },
  {
    "seq text": "CSKAMGDLASLVLLNGR [RPP1]",
    "measurement kind": "protein stability index",
    "val": 2.84
  },
  {
    "seq text": "YLADDIDADSLEDIYTS [RPL5]",
    "measurement kind": "protein stability index",
    "val": 2.68
  },
  {
    "seq text": "TGVSVEAVDDVFQAKMM [RPN11]",
    "measurement kind": "protein stability index",
    "val": 2.8
  },
  {
    "seq text": "DLLHPTAASEARKHKLK [RPS27A]",
    "measurement kind": "protein stability index",
    "val": 2.29
  },
  {
    "seq text": "AGGAADCQFWETWLGSQ [PRE2]",
    "measurement kind": "protein stability index",
    "val": 3.19
  },
  {
    "seq text": "NLFGATANANKPAFSFG [YJL041W/NSP1]",
    "measurement kind": "protein stability index",
    "val": 3.05
  },
  {
    "seq text": "TITTILILGLNTSIAQF [YML103C/NUP188]",
    "measurement kind": "protein stability index",
    "val": 1.83
  },
  {
    "seq text": "ESGEFDFDLFKEVLPDL [YJL039C/NUP192]",
    "measurement kind": "protein stability index",
    "val": 3.43
  },
  {
    "seq text": "RLFIGDQNNKKMVGLRG [SNF2]",
    "measurement kind": "protein stability index",
    "val": 2.65
  },
  {
    "seq text": "SSAHLIRINDEPILGQI [YML103C/NUP188]",
    "measurement kind": "protein stability index",
    "val": 2.59
  },
  {
    "seq text": "YHFPIFNKYADPTLTTT [RPN4]",
    "measurement kind": "protein stability index",
    "val": 2.05
  },
  {
    "seq text": "YRKTEGIFEKAKAKAVT [YMR153W/NUP53]",
    "measurement kind": "protein stability index",
    "val": 2.56
  },
  {
    "seq text": "SSGQDKKKKKGSNQKPK [RPT2]",
    "measurement kind": "protein stability index",
    "val": 3.08
  },
  {
    "seq text": "IMERIKSSLSLRDHALS [ITC1]",
    "measurement kind": "protein stability index",
    "val": 2.24
  },
  {
    "seq text": "LLETKLRQQYEIELKKL [SWI1]",
    "measurement kind": "protein stability index",
    "val": 3.01
  },
  {
    "seq text": "LPNQIPGEYITTIKAIF [YMR129W/POM152]",
    "measurement kind": "protein stability index",
    "val": 2.37
  },
  {
    "seq text": "TYASVTGLFTLERTDLK [RPN7]",
    "measurement kind": "protein stability index",
    "val": 3.43
  },
  {
    "seq text": "SNGIFYGPSFTKRESLN [SIR2]",
    "measurement kind": "protein stability index",
    "val": 2.85
  },
  {
    "seq text": "GIKLQMQNSKVESVCQK [SMC4]",
    "measurement kind": "protein stability index",
    "val": 2.55
  },
  {
    "seq text": "TWSLILNECLKTIQINN [YML031W/NDC1]",
    "measurement kind": "protein stability index",
    "val": 1.88
  },
  {
    "seq text": "YEDEELSRAEYDSDSDS [LIN1]",
    "measurement kind": "protein stability index",
    "val": 3.19
  },
  {
    "seq text": "EAINGFKDETISKKIIG [SIR3]",
    "measurement kind": "protein stability index",
    "val": 3.08
  },
  {
    "seq text": "IVTKDGVRKEFYELKRD [PRE7]",
    "measurement kind": "protein stability index",
    "val": 2.35
  },
  {
    "seq text": "SSASPSALTSPTDSSKI [SIR3]",
    "measurement kind": "protein stability index",
    "val": 2.71
  },
  {
    "seq text": "PQQQQQHLQFNGSSDAS [YDL088C/ASM4]",
    "measurement kind": "protein stability index",
    "val": 2.41
  }
]
